Experiment: qHTS of pediatric cancer cell lines to identify multiple opportunities for drug repurposing: Primary screen for Saos-2 cells (AID 1347097); also: nearly all actives have a fitted effect of over 40% in size
Settings: Saos-2 viability, CellTiter-Glo ATP luminescence, 48 h; series mostly up to 46 µM
Results filed as inconclusive are left out. The source made the active and inactive calls. Calls follow the shape of the dose curve; as a rule, active = well fitted cell-killing curve with a large enough effect; inconclusive = small, poorly fitted or top-dose-only effect; inactive = no such curve, though single readings can be large or run the other way.
Answer with one of the outcomes 1 (active), 0 (inactive)

The following molecules have reported results that may help.
{"molecule": "O=C(NCCc1c[nH]c2ccccc12)c1cccnc1", "classification": 0}
{"molecule": "CC(=O)OC[C@H]1O[C@@H](n2ncc(=O)[nH]c2=O)[C@H](OC(C)=O)[C@@H]1OC(C)=O", "classification": 1}
{"molecule": "CCN(CC)CCOc1ccc2c(c1)C(=O)c1cc(OCCN(CC)CC)ccc1-2", "classification": 0}
{"molecule": "COc1ccc(CN(CCN(C)C)c2ncccn2)cc1", "classification": 0}
{"molecule": "CCC1NC(=O)c2cc(S(N)(=O)=O)c(Cl)cc2N1 (configuration not stated)", "classification": 0}

Challenge: Recorded test outcome, item "COc1cc(O)c(C(=O)c2ccccc2)cc1S(=O)(=O)O"
Response given: 0

Challenge: Next: Cc1ccccc1OCC(O)CO (configuration not stated)
Response given: 0

Challenge: Follow-up item: "O=C(O)CCC(=O)Nc1ccc(S(=O)(=O)Nc2nccs2)cc1"
Response given: 0

Challenge: Check "COc1ccc(-c2cc(C(F)F)nn2-c2ccc(S(N)(=O)=O)cc2)cc1F" too.
Response given: 0

Challenge: Again, but for "CN1CCc2cccc3c2[C@H]1Cc1ccc(O)c(O)c1-3"
Response given: 1

Challenge: And then "COc1cc(N)c(Cl)cc1C(=O)NC1CCN(Cc2ccccc2)CC1" , what is it?
Response given: 0

Challenge: And what about the molecule "CCCCCCCCCCCCCC(=O)OC(C)C" ?
Response given: 0
